Catalogue of sequences with associated self-aminoacylation
System: biotinyl-Met-oxazolone
Assay Remarks: self-aminoacylation, catalytic enhancement (BMO) (fold over background); higher = more active; k-Seq, kA / k0A0; sequences stand for … in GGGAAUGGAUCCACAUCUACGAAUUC…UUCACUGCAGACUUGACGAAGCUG
Fewer inactive variants are shown than the library holds.
Just the number, please, no unit attached.

These solved cases illustrate the format of a correct answer.
Chain Sequence	self-aminoacylation
CCAAACUUCAAGCAAUAGGUC [Fam1B.1 aminoacylation ribozyme variant]	0.574
AAGUUUGCUACUAGUCGCAAG [Fam3.1 aminoacylation ribozyme variant]	0.802
AAUUUUGCUAUUAGUCGCAAG [Fam3.1 aminoacylation ribozyme variant]	1.71
AUUCGCCUAGUUCAUCGGGUG [Fam2.2 aminoacylation ribozyme variant]	2.85
UUUACCCAGGUCAUCGAGUGA [Fam2.1 aminoacylation ribozyme variant]	5.36
CUACUUCAAACUAUCGAUCUG [Fam1A.1 aminoacylation ribozyme variant]	0.57

IN: Find self-aminoacylation (biotinyl-Met-oxazolone) for the entry CUACUUCAAACAAGUGGUCUG [Fam1A.1 aminoacylation ribozyme variant]
OUT: 0.7

IN: Repeat with AUCCACCUAGAUCAUCGGGUG [Fam2.2 aminoacylation ribozyme variant]
OUT: 3.25

IN: Repeat with CCACACUUCAAGCAGUAGGUC [Fam1B.1 aminoacylation ribozyme variant]
OUT: 0.425

IN: Repeat with CCACACUUCAACCAAUCGGGC [Fam1B.1 aminoacylation ribozyme variant]
OUT: 1.75

IN: Repeat with AAUUUUUCUAAUAGUCGCAAG [Fam3.1 aminoacylation ribozyme variant]
OUT: 1.7

IN: Repeat with CCACACUUCAAGCAAUCGUUG [Fam1B.1 aminoacylation ribozyme variant]
OUT: 0.877

IN: Repeat with CCGCUCUUCAAGCAAUCGGUC [Fam1B.1 aminoacylation ribozyme variant]
OUT: 1.6

IN: Repeat with CUACUUCAACCAAGCGGUCUG [Fam1A.1 aminoacylation ribozyme variant]
OUT: 0.907

IN: Repeat with CCACAGUUCAAGCCAUCGGUC [Fam1B.1 aminoacylation ribozyme variant]
OUT: 2.33

###

Test system: biotinyl-Leu-oxazolone
Assay Remarks: self-aminoacylation, catalytic enhancement (BLO) (fold over background); higher = more active; k-Seq, kA / k0A0; sequences stand for … in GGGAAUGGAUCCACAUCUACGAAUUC…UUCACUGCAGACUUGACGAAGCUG
Fewer inactive variants are shown than the library holds.
Catalogue of sequences with associated self-aminoacylation
Just the number, please, no unit attached.

These solved cases illustrate the format of a correct answer.
Chain Sequence	Tested System	self-aminoacylation
AUUACCCUGGUCAUCGAGCCA [Fam2.1 aminoacylation ribozyme variant]	biotinyl-Leu-oxazolone	2.23
AGGUUUGCUAAUAGUCCCAAG [Fam3.1 aminoacylation ribozyme variant]	biotinyl-Leu-oxazolone	0.779
AUUACUCUGGUCAUCGUGUGA [Fam2.1 aminoacylation ribozyme variant]	biotinyl-Leu-oxazolone	2.81
ACUACCCUGUUCAUCGAGUGA [Fam2.1 aminoacylation ribozyme variant]	biotinyl-Leu-oxazolone	3.27
AUUCACCUAGGUCCUCGGGUG [Fam2.2 aminoacylation ribozyme variant]	biotinyl-Leu-oxazolone	5.91
ACUCUCCUAGGUCAUCGGGUG [Fam2.2 aminoacylation ribozyme variant]	biotinyl-Leu-oxazolone	10.2

IN: Field request: self-aminoacylation | item: CUUACCCUGGUCAUCGUGUGA [Fam2.1 aminoacylation ribozyme variant]
OUT: 2.87

IN: Repeat with AAGUUUGCUAAUAGUCGUAAG [Fam3.1 aminoacylation ribozyme variant]
OUT: 0.914
